# systemTested: T1, VEGF (human, UniProt P15692-4 27-191, limits assumed)
# T1 construct: Biotinylated in the KDR-IgG ELISA, amine-coupled to the chip in BIAcore; also called biotinylated VEGF; vascular endothelial growth factor
# T1 sequence (P15692 other isoform, or with tags, fused parts or gaps limits assumed): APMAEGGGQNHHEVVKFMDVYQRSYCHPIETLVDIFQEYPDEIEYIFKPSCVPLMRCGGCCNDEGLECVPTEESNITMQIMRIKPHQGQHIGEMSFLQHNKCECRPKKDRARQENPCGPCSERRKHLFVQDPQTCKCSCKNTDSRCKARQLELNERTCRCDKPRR
# experimentalDetails: BIAcore-2000 SPR, Fab over immobilized VEGF, 25 C
# Method: BIAcore Analysis: The VEGF-binding affinities of Fab fragments were calculated from association and dissociation rate constants measured using a BIAcore-2000™ surface plasmon resonance system (BIAcore, Inc., Piscataway, N.J.). A biosensor chip was activated for covalent coupling of VEGF using N-ethyl-N′-(3-dimethylaminopropyl)-carbodiimide hydrochloride (EDC) and N-hydroxysuccinimide (NHS) according to the supplier's (BIAcore, Inc., Piscataway, N.J.) instructions. […]
Reported kon by item:
observationType: kon (M⁻¹ s⁻¹)

Y0243-1 (Fab, V domains shown, Soluble Fab) VH: EVQLVESGGGLVQPGGSLRLSCAASGYDFTHYGMNWVRQAPGKGLEWVGWINTYTGEPTYAADFKRRFTFSLDTSKSTAYLQMNSLRAEDTAVYYCAKYPHYYGSSHWYFDVWGQGTL VL: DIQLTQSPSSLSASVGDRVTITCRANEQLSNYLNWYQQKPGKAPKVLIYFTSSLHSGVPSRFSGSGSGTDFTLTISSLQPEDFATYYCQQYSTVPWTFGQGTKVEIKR    67000
Y0238-7 (Fab, V domains shown, From library YC-81 on the pY0192 template; Soluble Fab) VH: EVQLVESGGGLVQPGGSLRLSCAASGYTFTNYGINWVRQAPGKGLEWVGWINTYTGEPTYAADFKRRFTFSLDTSKSTAYLQMNSLRAEDTAVYYCAKYPYYWGTSHWYFDVWGQGTL VL: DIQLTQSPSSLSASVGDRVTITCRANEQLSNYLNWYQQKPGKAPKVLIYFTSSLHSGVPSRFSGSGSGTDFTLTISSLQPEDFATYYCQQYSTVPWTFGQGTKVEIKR    15000
Y0313-3 (Fab, V domains shown, Soluble Fab) VH: EVQLVESGGGLVQPGGSLRLSCAASGYTFTNYGINWVRQAPGKGLEWVGWINTYTGEPTYAADFKRRFTFSLDTSKSTAYLQMNSLRAEDTAVYYCAKYPYYYGSSHWYFDVWGQGTL VL: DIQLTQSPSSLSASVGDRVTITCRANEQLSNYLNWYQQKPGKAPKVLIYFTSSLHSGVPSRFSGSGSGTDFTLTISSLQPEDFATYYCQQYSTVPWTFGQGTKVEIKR    12000
Y0244-1 (Fab, V domains shown, Soluble Fab) VH: EVQLVESGGGLVQPGGSLRLSCAASGYTFTNYGINWVRQAPGKGLEWVGWINTYTGEPTYAADFKRRFTFSVDVSKSTAYLQMNSLRAEDTAVYYCAKYPHYYGSSHWYFDVWGQGTL VL: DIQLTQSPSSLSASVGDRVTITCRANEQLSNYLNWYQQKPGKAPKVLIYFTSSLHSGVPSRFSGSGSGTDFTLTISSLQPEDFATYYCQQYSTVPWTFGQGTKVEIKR    34000
